I'd be grateful if you could share measured melting point for these entries.

q: Entry under review: Br.CCCc1ccc(CN2CCN(C(=O)c3cc4ccc(Oc5ccc(N(C)C(=O)c6ccc(C(F)(F)F)cc6)cn5)cc4n3C)CC2)cc1 . Reported melting point?
a: 255 to 257 °C

q: Thanks! And COc1ccc(CN2CCN(C(=O)c3cc4cc(Oc5ccc(N(C)C(=O)c6ccc(Cl)c(Cl)c6)cn5)ccc4n3C)CC2)nc1.O=C(O)/C=C\C(=O)O ?
a: 155 to 156 °C

q: Thanks! And Br.Cn1c(C(=O)N2CCN(Cc3ccc4c(c3)OCO4)CC2)cc2cc(Oc3ccc(NCc4ccc(Cl)c(Cl)c4)cn3)ccc21 ?
a: 205 to 214 °C

q: Thanks! And COCc1ccc(CN2CCN(C(=O)c3cc4cc(Oc5ccc(N(C)C(=O)c6ccc(C(F)(F)F)cc6)cn5)ccc4n3C)CC2)cc1.O=C(O)/C=C\C(=O)O ?
a: 137 to 139 °C

q: Thanks! And Br.Br.Cn1c(C(=O)N2CCN(Cc3cccnc3)CC2)cc2cc(Oc3ccc(NC(=O)c4ccc(Cl)c(Cl)c4)cn3)ccc21 ?
a: 249 to 252 °C (dec.)

q: Thanks! And CCCOc1ccc(CN2CCN(C(=O)c3cc4ccc(Oc5ccc(N(C)C(=O)c6ccc(OC(F)F)cc6)cn5)cc4n3C)CC2)cc1.Cl ?
a: 226.9 to 229 °C

q: Thanks! And CCOc1ccc(CN2CCN(C(=O)c3cc4cc(Oc5ccc(N(C)C(=O)c6ccc(Cl)c(Cl)c6)cn5)ccc4n3C)CC2)cc1.CS(=O)(=O)O ?
a: 168 to 170 °C

q: Thanks! And Br.COc1cccc(CN2CCN(C(=O)c3cc4cc(Oc5ccc(N(C)C(=O)c6ccc(C(F)(F)F)cc6)cn5)ccc4n3C)CC2)c1 ?
a: 217 to 219 °C

q: Thanks! And Br.CN(C(=O)c1ccc(C(F)(F)F)cc1)c1ccc(Oc2cccc3cc(C(=O)N4CCN(Cc5ccc(C#N)cc5)CC4)n(C)c23)nc1 ?
a: 200 to 201 °C

q: Thanks! And CN(c1ccc(Oc2ccc3c(c2)cc(C(=O)N2CCN(Cc4ccc(OCC(F)(F)F)cc4)CC2)n3C)nc1)S(=O)(=O)c1ccc(Cl)c(Cl)c1 ?
a: 174.8 to 175.8 °C

q: Thanks! And COc1ccc(CN2CCN(C(=O)c3cc4cc(Oc5ccc(N(C)C(=O)c6ccc(-n7cccc7)nc6)cn5)ccc4n3C)CC2)cc1.O=C(O)C(=O)O.O=C(O)C(=O)O ?
a: 185 to 187 °C

q: Thanks! And Br.CC(C)c1ccc(CN2CCN(C(=O)c3cc4ccc(Oc5ccc(N(C)C(=O)c6ccc(C(F)(F)F)cc6)cn5)cc4n3C)CC2)cc1 ?
a: 255 to 258 °C

q: Thanks! And CCN(c1ccc(Oc2ccc3cc(C(=O)N4CCN(Cc5ccc(OCC(F)(F)F)cc5)CC4)n(C)c3c2)nc1)S(=O)(=O)c1ccc(Cl)c(Cl)c1.Cl ?
a: 226.9 to 227.2 °C

q: Thanks! And Cc1c(Oc2ccc(N(C)C(=O)c3ccc(C(F)(F)F)cc3)cn2)ccc2c1cc(C(=O)N1CCN(Cc3ccc4c(c3)OC(F)(F)O4)CC1)n2C ?
a: 97.9 to 99.5 °C

q: Thanks! And CC(C)Oc1ccc(CN2CCN(C(=O)c3cc4ccc(Oc5ncc(N(C)S(=O)(=O)c6ccc(Cl)c(Cl)c6)cn5)cc4n3C)CC2)cc1 ?
a: 191.2 to 193 °C

q: Thanks! And CN(c1ccc(Oc2ccc3cc(C(=O)N4CCN(Cc5ccc(OCC(F)(F)F)cc5)CC4)n(C)c3c2)nc1)S(=O)(=O)c1ccc(Cl)c(Cl)c1 ?
a: 165.9 to 167.2 °C

q: Thanks! And Cc1cc(C(=O)Nc2ccc(Oc3ccc4cc(C(=O)N5CCN(Cc6ccc(OCC(F)(F)F)cc6)CC5)n(C)c4c3)nc2)ccc1Cl.Cl ?
a: 182.9 °C

q: Thanks! And Br.CCOc1ccc(CN2CCN(C(=O)c3cc4cc(Oc5ccc(NC(=O)c6ccc(Cl)c(Cl)c6)cn5)ccc4n3C)CC2)cc1 ?
a: 235 to 238 °C (dec.)

q: Thanks! And CN(c1ccc(Oc2ccc3cc(C(=O)N4CCN(Cc5ccc(OCC(F)(F)F)cc5)CC4)n(C)c3c2)nc1)S(C)(=O)=O.Cl ?
a: 252.7 to 253.6 °C

q: Thanks! And Br.Cc1cc(Oc2ccc3cc(C(=O)N4CCN(Cc5ccc(OCC(F)(F)F)cc5)CC4)n(C)c3c2)ncc1N(C)S(C)(=O)=O ?
a: 235.8 to 237.8 °C

q: Thanks! And Br.CN(C(=O)/C=C/c1cc(F)cc(F)c1)c1ccc(Oc2ccc3c(c2)cc(C(=O)N2CCN(Cc4ccc5c(c4)OCO5)CC2)n3C)nc1 ?
a: 176 to 178 °C

q: Thanks! And Br.Cn1c(C(=O)N2CCN(Cc3ccc(C(F)(F)F)cc3)CC2)cc2ccc(Oc3ccc(NC(=O)c4ccc(Cl)c(Cl)c4)cn3)cc21 ?
a: 259.4 to 260.7 °C

q: Thanks! And CN(c1ccc(Oc2ccc3cc(C(=O)N4CCN(Cc5ccc(OCC6CC6)cc5)CC4)n(C)c3c2)nc1)S(=O)(=O)c1ccc(Cl)c(Cl)c1 ?
a: 194.1 to 195.8 °C

q: Thanks! And Cc1cc(C(F)(F)F)ccc1C(=O)Nc1ccc(Oc2ccc3cc(C(=O)N4CCN(Cc5ccc(OC(C)C)cc5)CC4)n(C)c3c2)nc1.Cl ?
a: 197.7 to 199.3 °C

Where do these numbers come from? They come from patent US8551999B2.
